Test system: CCRF-CEM leukemia
Assay Info: NCI-60 one-dose screen, 48 h (100 = growth as untreated, 0 = no growth, -100 = all killed)
Condition Parameters: 10 µM unless noted
Description: Growth inhibition of the CCRF-CEM human tumor cell line is measured as a screen for anti-cancer activity. Cells are grown in 96 well plates and exposed to the test compound for 48 hours. Compounds are tested at a single concentration, which is 10^-5 M for most compounds. The reported endpoint is percent growth (GI% or GIPRCNT), where numbers from 0 - 100% represent growth inhibition, and numbers from -100% - 0 represent cell death. For example, a value of 40 represents 60% growth inhibition. […]
This is part of a sample that, as a whole, favours compounds with a hit. Of some 83,000 tested, about 20% had one in any assay.
Entries are sorted into classes by growth as follows: low (below 20%), medium (20% to below 60%), high (60% or more)

In plain terms, what class is Oc1ccc(CSc2nnc(-c3cnccn3)n2-c2ccccc2)c2cccnc12 ?
low

More entries:
Which of the defined bands does the recorded growth of N#Cc1c(-c2ccccc2)cc(-c2c[nH]c3ccccc23)nc1-c1c[nH]c2ccccc12 sit within?
high

Returns: class label. Input: CCOC(=O)c1nn(-c2ccc(C)cc2)c(=O)c2c(N)c(C#N)c(-c3ccc(OC)cc3)cc12
high

Class label required: CN(c1ccc(F)cc1)S(=O)(=O)c1ccc(-c2cnc(C3CC3)o2)cc1
low

Which growth category applies to O=C(NNc1nc2cc(F)ccc2n2cncc12)c1cnccn1 here?
low

Tag the class for COc1ccc(C2CC(c3ccc(Nc4nc(NCCO)nc(Nc5ccc(Cl)cc5)n4)cc3)=Nc3c(N)nc(N)nc3N2)cc1 (centres undefined)
low

Which class is correct for the following molecule? CN(C)C(=O)c1ccccc1-n1cnc2ccccc2c1=O
high

# bin label for COc1cc(/C=N/n2cnc3oc(-c4ccccc4)cc3c2=N)cc(CN2CCCC2)c1O
low

Textbook exercise: identify the category of the molecule given here, CC1(COc2ccc3ncc(C#Cc4cncc(C(=O)Nc5cc(C(C)(C)C)on5)c4)n3n2)COC1 , according to its measured value.
medium

Pick a category. Item: Cc1cn(-c2cc(NC(=O)c3cncc(C#Cc4cnc5ccc(O[C@H]6CCOC6)nn45)c3)cc(C(F)(F)F)c2)cn1
high

Input O=C(Nc1ccc(F)cc1)c1cc(-c2ccc(F)cc2F)ccc1O ; output its category
low

For the record CN(C)c1ccc(/C=N/Nc2nc(N/N=C/c3ccc(N(C)C)cc3)nc(N3CCOCC3)n2)cc1 , report the class its growth corresponds to.
low

Input CNC(=O)c1cc(Oc2ccc3nc(NC(=O)c4ccc(CN5CCCN(C)CC5)c(C(F)(F)F)c4)sc3c2)ccn1 ; output its category
low

Class for O=c1oc2ccc(-c3ccc(F)cc3F)cc2c(=O)n1-c1cccc(C(F)(F)F)c1 ?
medium

Into which category would you place CC(=O)Nc1ccc(NC(=O)Nc2cccc(-c3nc(-c4ccc(NC(=O)c5cccs5)cc4Cl)no3)c2)cc1C(F)(F)F ?
low

For C(=C(\C1=NCCN1)n1cnc2ccccc21)/c1ccc2ccccc2c1 , which growth bin applies?
high

Sort O=c1[nH]c2cc(Cl)ccc2n1C1CCN(c2ccc3nnc(Cl)n3n2)CC1 into one of the categories.
high

GET /class?item= COC(=O)c1nc(-c2ccc(C)cc2)oc1S(=O)(=O)N1CCN(c2oc(-c3ccccc3)nc2C#N)CC1
medium
